Reference for the values: paper PMC12811658

# TEST METHOD NOTES: Pharmacokinetics of iDeg-6
# Format: in vivo, male C57Bl/6 mice
# CONDITION DETAILS: male, C57Bl/6, mouse, plasma; 1 mg/kg IV
# Protocol: In vivo pharmacology characterization was carried out at Pharmacelsus GmbH, Saarbrücken, Germany, using male C57Bl/6 mice. Food and water was provided ad libitum before and during each study. All experimental procedures were approved by and conducted in accordance with the regulations of the local Animal Welfare Authorities. Plasma samples were analysed by liquid chromatography tandem-mass spectrometry using a generic method. Pharmacokinetic parameters were calculated by non-compartmental analysis. […]
RESULT TYPE: half-life (h)
All answers are understood in h, so give the number only.

Query: Looking for the measured half-life of C#Cc1ccc(NC(=O)OC[C@]23CN(S(=O)(=O)c4ccc(C(C)(C)C)cc4C)C[C@H]2C[C@H]2C[C@@H]3C2(C)C)cc1 , can you help?
Result: 1.1
